Tested on: HT29 colon
Test: NCI tumour cell line growth inhibition, 48 h; in the data active = GI50 below about 0.43 µM; inactive = the rest
Mark one answer only. Choices: active, inactive

These recorded examples may help you get a feel for the data.
Query: # lookup: test call for CCOC(=O)C1=C(N)Oc2c(sc3c(C)cccc23)C1c1ccc(F)cc1 (stereo unspecified)
Reply: inactive

Query: Then "O=C(N/N=C/c1ccc(O)cc1O)c1cccnc1" ?
Reply: inactive

Next:
Query: # lookup: test call for "CC1(C)N=C(N)N=C(N)N1c1cccc(OCCOc2cccc([N+](=O)[O-])c2)c1"
Reply: inactive

Query: Then Cc1sc2c(c1C)C(c1ccc(Cl)cc1)=N[C@@H](CC(=O)Nc1ccc(OCCOCCOCCOCCNc3cccc4c3C(=O)N(C3CCC(=O)NC3=O)C4=O)cc1)c1nnc(C)n1-2 (stereo partly specified) ?
Reply: active

Query: Then "COc1ccc(-c2nn(-c3cccc(Cl)c3)cc2-c2nc(N)[nH]c(=O)c2C#N)cc1" ?
Reply: inactive

Query: Then "Oc1ccc(Oc2cnc3ccccc3n2)cc1" ?
Reply: inactive

###

Test system: MDA-MB-435
Mark one answer only. Choices: active, inactive

Query: # lookup: test call for "O=C(N[C@@H](Cc1coc2ccccc12)B(O)O)[C@@H]1C[C@H]2CC[C@@H]1O2"
Reply: inactive

Query: Then COc1ccc2c(c1)C(C)Cc1c(ncnc1-n1cnc3ccccc31)N2C (stereo not given) ?
Reply: active

Query: Then "CC1(C)N=C(N)N=C(N)N1c1cccc(OCCOc2cccc([N+](=O)[O-])c2)c1" ?
Reply: inactive

Query: Then "NCCCOc1cc(Cl)ccc1NC(=O)c1cc2ccccc2cc1OCCCN" ?
Reply: inactive

Next:
Query: # lookup: test call for "CNCCn1c(=O)c2cc(OC)c(OC)cc2c2cnc3cc4c(cc3c21)OCO4"
Reply: active

Query: Then "Oc1ccc(Oc2cnc3ccccc3n2)cc1" ?
Reply: inactive

Query: Then "Cn1cc(S(=O)(=O)N2CCC3=Cc4c(cnn4-c4ccc(F)cc4)C[C@]3(C(=O)c3cc(C(F)(F)F)ccn3)C2)cn1" ?
Reply: inactive

Query: Then "CN(C)CCNc1nc2ccccc2c2c(=O)c3cc(F)ccc3sc12" ?
Reply: inactive

Query: Then "NC(N)=N/N=C(\N=Nc1ccccc1)c1ccc(Cl)cc1" ?
Reply: inactive

Query: Then "NCCCn1c2c(c3ccccc3c1=O)C(=O)c1ccccc1-2" ?
Reply: inactive

###

Tested on: 786-0 renal
Assay: NCI tumour cell line growth inhibition, 48 h
Where a SMILES comes first, the peptide text is derived from it. The star is where a group is joined. Cbz = O=C(OCc1ccccc1)*
Observation Type: TGI

Query: Which TGI is listed for "Cc1[nH]n(-c2nc(O)c(-c3ccccc3)c(=O)[nH]2)c(=O)c1CCO" ?
Reply: > 100 µM

Query: Then CCOC(=O)CCC(NC(=O)C(Cc1ccccc1)NC(=O)OCc1ccccc1)C(=O)OCC (stereo not drawn) (Cbz-Phe-Glu(OEt)-OEt; configuration not given here) ?
Reply: 32 µM

Query: Then "COCCn1cnc2c(Cl)nc(Nc3ccccc3)nc21" ?
Reply: > 100 µM

Query: Then Cc1ccc2c(c1)CC1(Cc3cccc(C)c3C1=O)C2=O (stereo not drawn) ?
Reply: > 100 µM

Query: Then "O=C(NNc1cnccn1)c1nc2cc(F)ccc2n2cccc12" ?
Reply: > 100 µM

Query: Then "Oc1c(Br)ccc2cccnc12" ?
Reply: > 43.2 µM

Query: Then "Cn1nnnc1SC(F)(F)c1nc2ccccc2o1" ?
Reply: > 100 µM

Query: Then C[Si](C)(C)CN1C(=O)c2ccccc2C1(O)c1ccccc1 (stereo not drawn) ?
Reply: > 100 µM

Query: Then Cc1ccc(N2C(=O)N(c3ccc(C)cc3)C3(SC=NN3C)C2=O)cc1 (stereo not drawn) ?
Reply: > 100 µM

Query: Then "O=C(CCN1CCOCC1)Nc1cccc(-n2cc(-c3ccncc3)c(-c3ccc(Cl)c(O)c3)n2)c1" ?
Reply: 4.75 µM

Next:
Query: Which TGI is listed for "CCOP(=O)(OCC)/C(C#N)=C/c1ccc(-c2cc(C(F)(F)F)cc(C(F)(F)F)c2)o1" ?
Reply: 25.5 µM

Query: Then "COc1ccc(/C(Cl)=C(\C#N)c2ccc(OC)c(OC)c2)cc1OC" ?
Reply: > 100 µM

Query: Then "CN(C)CCNc1nc2ccccc2c2c(=O)c3cc(F)ccc3sc12" ?
Reply: 2.91 µM

Data credit: PubChem BioAssay (NCI)
